Measured viability at 100 ug/ml, listed per entry for reference.
# protocol_notes: Cytotoxicity against mouse J774 cells assessed as cell viability at 100 ug/ml by MTT assay
# Format: cell-based
# cond: read-out: Activity

molecule_smiles	viability at 100 ug/ml, %
Clc1ccc2c(N/N=C/c3cccc(Br)c3)ccnc2c1	3
Clc1ccc2c(N/N=C/c3ccc(Br)cc3)ccnc2c1	91

* * *

# protocol_notes: Cytotoxicity against mouse J774 cells infected with Mycobacterium bovis BCG assessed as cell viability at 10 ug/ml by MTT assay
# Format: cell-based
# cond: read-out: Activity
observed_property: viability at 10 ug/ml (%)

molecule_smiles	quantitative_result
Clc1ccc2c(N/N=C/c3ccc(Br)cc3)ccnc2c1	100

* * *

# protocol_notes: Cytotoxicity against mouse J774 cells assessed as cell viability at 10 ug/ml by MTT assay
# Type: cell-based
# cond: read-out: Activity

molecule_smiles	viability at 10 ug/ml (%)
Clc1ccc2c(N/N=C/c3cccc(Br)c3)ccnc2c1	60
Clc1ccc2c(N/N=C/c3ccc(Br)cc3)ccnc2c1	100

* * *

# protocol_notes: Cytotoxicity against mouse J774 cells infected with Mycobacterium bovis BCG assessed as cell viability at 1 ug/ml by MTT assay
# Assay type: cell-based
# cond: read-out: Activity

molecule_smiles	viability at 1 ug/ml (%)
Clc1ccc2c(N/N=C/c3ccc(Br)cc3)ccnc2c1	100

* * *

# protocol_notes: Cytotoxicity against mouse J774 cells infected with Mycobacterium bovis BCG assessed as cell viability at 100 ug/ml by MTT assay
# Type: cell-based
# cond: read-out: Activity

molecule_smiles	viability at 100 ug/ml, %
Clc1ccc2c(N/N=C/c3ccc(Br)cc3)ccnc2c1	85
